Measured AC50, listed per entry for reference.
# tested.target: 5-hydroxytryptamine receptor 1A (Homo sapiens); further: assay procedure not described here
# Sequence (P08908 whole entry): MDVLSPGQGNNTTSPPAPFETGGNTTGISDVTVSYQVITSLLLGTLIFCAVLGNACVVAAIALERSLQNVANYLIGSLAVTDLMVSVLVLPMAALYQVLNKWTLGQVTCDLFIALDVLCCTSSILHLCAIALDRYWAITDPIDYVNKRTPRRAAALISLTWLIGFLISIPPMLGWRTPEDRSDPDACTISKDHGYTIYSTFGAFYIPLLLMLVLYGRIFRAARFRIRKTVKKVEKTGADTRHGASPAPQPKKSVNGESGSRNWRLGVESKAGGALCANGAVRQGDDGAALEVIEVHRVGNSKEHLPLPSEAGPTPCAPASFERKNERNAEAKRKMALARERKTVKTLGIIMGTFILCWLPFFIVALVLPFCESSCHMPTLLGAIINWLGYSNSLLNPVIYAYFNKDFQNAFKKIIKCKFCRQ

Would you please look over these solved cases?
Incoming: Name the recorded AC50 of NC(N)=Nc1nc(CSCCC(N)=NS(N)(=O)=O)cs1 [FAMOTIDINE] , assay system 5-hydroxytryptamine receptor 1A (Homo sapiens). Further: assay procedure not described here.
Outgoing: > 10 µM

Incoming: Name the recorded AC50 of CN(C)C(=O)OC1N=C(c2ccccc2)c2cc(Cl)ccc2N(C)C1=O (stereo not given) [CAMAZEPAM] , assay system 5-hydroxytryptamine receptor 1A (Homo sapiens). Further: assay procedure not described here.
Outgoing: > 10 µM

Incoming: Name the recorded AC50 of Nc1nc(N)c2nc(-c3ccccc3)c(N)nc2n1 , assay system 5-hydroxytryptamine receptor 1A (Homo sapiens). Further: assay procedure not described here.
Outgoing: > 10 µM

Incoming: Name the recorded AC50 of O=C(O)CCCc1ccccc1 [PHENYLBUTANOIC ACID] , assay system 5-hydroxytryptamine receptor 1A (Homo sapiens). Further: assay procedure not described here.
Outgoing: > 10 µM

Continuing:
Incoming: Name the recorded AC50 of Cc1cc2c(OCC(CNC(C)(C)C)OC(=O)c3ccccc3)cccc2[nH]1 (stereo not given) [BOPINDOLOL] , assay system 5-hydroxytryptamine receptor 1A (Homo sapiens). Further: assay procedure not described here.
Outgoing: 0.0522 µM
